This listing pairs variants with measured enrichment ratio.
B1: PhoQ; a variant is named by its letters at X, in order, P23837 (parent)
chain: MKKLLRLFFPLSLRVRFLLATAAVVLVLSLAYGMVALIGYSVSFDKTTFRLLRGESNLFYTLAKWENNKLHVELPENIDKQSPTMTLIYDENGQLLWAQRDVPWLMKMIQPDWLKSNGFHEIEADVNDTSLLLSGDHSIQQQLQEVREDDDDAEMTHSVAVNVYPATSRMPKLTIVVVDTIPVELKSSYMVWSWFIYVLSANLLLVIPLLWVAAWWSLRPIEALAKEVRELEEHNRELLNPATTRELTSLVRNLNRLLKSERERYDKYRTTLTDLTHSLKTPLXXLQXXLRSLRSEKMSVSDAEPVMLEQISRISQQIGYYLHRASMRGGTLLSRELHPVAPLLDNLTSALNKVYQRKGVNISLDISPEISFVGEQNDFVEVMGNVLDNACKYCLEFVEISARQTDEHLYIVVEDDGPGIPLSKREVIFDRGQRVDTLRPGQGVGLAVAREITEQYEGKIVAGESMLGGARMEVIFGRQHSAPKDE

variants of: B1; test: enrichment ratio after two sorts for PhoP signalling (ratio (wild type AVST 3.29)); higher = more functional; details: with PhoP (E. coli)
The full ranking holds about 140,000 sequences; the median of “enrichment ratio after two sorts for PhoP signalling” is about 0, and the highest 2% start at about 11. The entries come from a sample that favours the highest values as a whole.

CHANGE: HMSL
enrichment ratio: ≤ 0.25
--
CHANGE: WNLM
enrichment ratio: ≤ 0.25
--
CHANGE: FKPV
enrichment ratio: ≤ 0.25
--
CHANGE: SHLA
enrichment ratio: 3.56
--
CHANGE: EDPV
enrichment ratio: ≤ 0.25
--
CHANGE: AYLM
enrichment ratio: ≤ 0.25
--
CHANGE: MEAC
enrichment ratio: 37.3
--
CHANGE: MKAC
enrichment ratio: ≤ 0.25
--
CHANGE: SHGM
enrichment ratio: ≤ 0.25
--
CHANGE: GPRY
enrichment ratio: ≤ 0.25
--
CHANGE: AHHD
enrichment ratio: ≤ 0.25
--
CHANGE: CTLI
enrichment ratio: ≤ 0.25
--
CHANGE: YWAC
enrichment ratio: ≤ 0.25
--
CHANGE: FWNS
enrichment ratio: ≤ 0.25
--
CHANGE: HALI
enrichment ratio: 12.2
--
CHANGE: NEAC
enrichment ratio: 15.1
--
CHANGE: KVEK
enrichment ratio: ≤ 0.25
--
CHANGE: INEK
enrichment ratio: ≤ 0.25
--
CHANGE: HALA
enrichment ratio: ≤ 0.25
